Values compiled from patent US20110105515A1.

# System: HS578T
# TEST PARAMETERS: read-out: LC50; HS578T (Breast Cancer), 48 hours, SRB
In this section we review reported CC50 values for a set of compounds.

COMPOUND | CC50
CC1(C)C=Cc2c(ccc3c4c(n(O)c23)C(C)(C)C2CC35CCCN3C(=O)C2(NC5=O)C4SCC(NC(=O)CCC(N)C(=O)O)C(=O)NCC(=O)O)O1 (centres unmarked) | > 50 µM

Qu. Find the recorded CC50 belonging to CN(C)c1cccc2c(S(=O)(=O)NCCCCCCCCCCOc3ccc4c(c3)[N+]([O-])=C3C4=C[C@@]45NC(=O)C6(CCCN6C4=O)CC5C3(C)C)cccc12 (some centres unmarked) and report it.
Ans. > 100 µM

---

In this section we review reported TGI values for a set of compounds.
# Test system: HCC-2998
# TEST PARAMETERS: HCC-2998 (Colon Cancer), 48 hours, SRB
Give your result in nM as a bare value.

# example entries with known answers
COMPOUND | REPORTED ENDPOINT | UNITS OF MEASURE | REPORTED MEASUREMENT
[2H]On1c2c(c3ccc4c(c31)C=CC(C)(C)O4)C(OC([2H])([2H])[2H])[C@@]13NC(=O)C4(CCCN4C1=O)CC3C2(C)C (stereo partly shown) | TGI | nM | 2010
CN(C)c1cccc2c(S(=O)(=O)NCCCCCCCCCCOc3ccc4c(c3)[N+]([O-])=C3C4=C[C@@]45NC(=O)C6(CCCN6C4=O)CC5C3(C)C)cccc12 (stereo partly shown) | TGI | nM | 2320
CC1(C)C=Cc2c(ccc3c4c(n(O)c23)C(C)(C)C2CC35CCCN3C(=O)C2(NC5=O)C4SCC(NC(=O)CCC(N)C(=O)O)C(=O)NCC(=O)O)O1 (stereo not shown) | TGI | nM | 1510

With those in mind, consider the next compound.
Qu. Find the measured TGI: item Cc1cc(C)cc(-c2ccc3c(c2)[N+]([O-])=C2C3=C[C@@]34NC(=O)C5(CCCN5C3=O)CC4C2(C)C)c1 (stereo partly shown) , target or system HCC-2998.
Ans. 1060

---

# Test system: MCF7
# TEST PARAMETERS: MCF7 (Breast Cancer), 48 hours, SRB
In this section we review reported TGI values for a set of compounds.
Please state the number and follow it with the unit.

COMPOUND | TGI
Cc1cc(C)cc(-c2ccc3c(c2)[N+]([O-])=C2C3=C[C@@]34NC(=O)C5(CCCN5C3=O)CC4C2(C)C)c1 (stereo partly shown) | 984 nM
CN(C)c1cccc2c(S(=O)(=O)NCCCCCCCCCCOc3ccc4c(c3)[N+]([O-])=C3C4=C[C@@]45NC(=O)C6(CCCN6C4=O)CC5C3(C)C)cccc12 (stereo partly shown) | 724 nM
[2H]On1c2c(c3ccc4c(c31)C=CC(C)(C)O4)C(OC([2H])([2H])[2H])[C@@]13NC(=O)C4(CCCN4C1=O)CC3C2(C)C (stereo partly shown) | 1330 nM

Qu. Find the measured TGI: item CC1(C)C=Cc2c(ccc3c4c(n(O)c23)C(C)(C)C2CC35CCCN3C(=O)C2(NC5=O)C4SCC(NC(=O)CCC(N)C(=O)O)C(=O)NCC(=O)O)O1 (stereo not shown) , target or system MCF7.
Ans. 3180 nM
